So I've got a bunch of compounds here, and I need their growth inhibition values.
Assay: NCI Yeast Anticancer Drug Screen. Data for the mlh1 rad18 strain (AID 175)
Conditions: S. cerevisiae mlh1 rad18 strain growth inhibition; at 50.0 µM; hits give high values
The panel holds about 79,000 compounds, 15% with a hit somewhere; the sample as a whole holds those more often. The source made the active and inactive calls. Cut-off read from the data, not from the text of the source: active = growth inhibition above about 70%; inactive = the rest.

Below: 3 compounds and their reported growth inhibition.
CCC1SC(=S)N(c2ccc(Cl)cc2)C1=O (stereo not drawn)	65% (inactive)
CCCCCC(=O)C(C)(c1nc2n(c1O)/C(=N/C(=O)Nc1ccc(Cl)cc1)N=N2)c1nc2n(c1O)/C(=N/C(=O)Nc1ccc(Cl)cc1)N=N2	7% (inactive)
O=S(=O)(CCC[C@H]1[C@@H](CCOCc2ccccc2)C2CCCN1O2)c1ccccc1 (stereo partly drawn)	0.4% (inactive)

Hello, I would appreciate it if you could give growth inhibition for each entry below.
1. CC(=O)O/N=C/c1c2ccccc2cc2ccccc12
2. Nc1cccc2cc(Cl)cnc12
3. N=C(N)c1ccc(N=Nc2c(O)ccc3c2[nH]c2ccccc23)cc1
4. O=S(=O)(O)c1ccc2c(N=Nc3c(O)ccc4ccccc34)cccc2c1
5. Cc1nc2ccccc2c(=O)n1NC(=O)c1ccc(CS)cc1

Reply:
33% (inactive)
67.3% (inactive)
98.3% (active)
87.9% (active)
65% (inactive)

###

Assay: NCI Yeast Anticancer Drug Screen. Data for the mlh1 rad18 strain (AID 175)
Conditions: S. cerevisiae mlh1 rad18 strain growth inhibition; at 5.0 µM (retest, dose inferred, filed as 0.5)
Experimental: Growth inhibition of yeast strains with defined genetic alterations is measured as a screen for potential anti-cancer activity. Selected strains with alterations in DNA damage repair or cell cycle control were exposed to compounds and growth inhibition was measured relative to vehicle treated controls. The strain used in this assay is mlh1 rad18
This is part of a sample that, as a whole, favours compounds with a hit. Of some 79,000 tested, about 15% had one in any assay. Activity calls are given as the source filed them. Rule as the data show it: active = growth inhibition above about 70%; inactive = the rest.
Outcomes you can answer with include only these: active, inactive

CC1C=CN(N(C)C)C2=C1C(=O)c1cnccc1C2=O (stereo unspecified)	active
Cc1ccc(S(=O)(=O)N/N=C/c2c(O)ccc3ccccc23)cc1	inactive
Nc1ccc2cc(Br)c3ccccc3c2c1	inactive
Cc1cccc[c]1[Sn]([Cl])([S]/C(C#N)=N/N=C/c1ccc(N(C)C)cc1)[c]1ccccc1C	inactive

Ask: How was CCCCOc1ccc(Nc2c3ccccc3nc3ccccc23)cc1 classified in this test?
Reply: inactive

Ask: How was O=Cn1c2ccccc2c2ccccc21 classified in this test?
Reply: inactive

Ask: How was O=S(=O)(CCC[C@H]1[C@@H](CCOCc2ccccc2)C2CCCN1O2)c1ccccc1 (stereo partly specified) classified in this test?
Reply: inactive

Ask: How was CC(=O)c1ccc(NCN2C(=O)c3ccccc3C2=O)cc1 classified in this test?
Reply: inactive

Ask: How was CN(NC(=O)/C(=C/C=C/c1ccccc1)NC(=O)c1ccccc1)C1=C(Cl)C(=O)[N+](c2ccccc2)=CC1 classified in this test?
Reply: inactive

Ask: How was COC(=O)C1(N2CCOCC2)CCC([C@@H](c2ccccc2)C(C)[N+](=O)[O-])C1 (stereo partly specified) classified in this test?
Reply: inactive

Ask: How was CN(C)CCC(=O)c1c[nH]c2ccccc12 classified in this test?
Reply: inactive
